B1: glmS ribozyme (parent)
chain: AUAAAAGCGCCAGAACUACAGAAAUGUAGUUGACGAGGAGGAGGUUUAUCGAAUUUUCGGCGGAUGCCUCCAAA

Variants of: B1
ASSAY_PROTOCOL: self-cleavage kobs at 40 uM GlcN6P; higher = faster cleavage; RNA array
CONDITION_SUMMARY: with glucosamine-6-phosphate
Variants at the floor of the assay were thinned out.
ENDPOINT_LABEL: self-cleavage kobs at 40 uM GlcN6P

IN: Fill in the blank: the reported self-cleavage kobs at 40 uM GlcN6P of C19U G38A is ____.
OUT: < 1e-05 s⁻¹

IN: I am curious: what self-cleavage kobs at 40 uM GlcN6P value has been reported for C11G U56G ?
OUT: < 1e-05 s⁻¹

IN: What value of self-cleavage kobs at 40 uM GlcN6P has been recorded for this entry: G44A U56C G63A
OUT: < 1e-05 s⁻¹

IN: I'd like to know its self-cleavage kobs at 40 uM GlcN6P. The variant in question is A14U G62C
OUT: < 1e-05 s⁻¹

IN: Any idea what self-cleavage kobs at 40 uM GlcN6P was measured for C58A A64C ?
OUT: < 1e-05 s⁻¹

IN: // query self-cleavage kobs at 40 uM GlcN6P value for entry A39U U45G
OUT: 0.000146 s⁻¹

IN: Value lookup for self-cleavage kobs at 40 uM GlcN6P; key = U30G U56G C58U U69C
OUT: < 1e-05 s⁻¹

IN: // returns reported self-cleavage kobs at 40 uM GlcN6P for input C8G G59C
OUT: < 1e-05 s⁻¹

IN: Suppose we examine the variant C10A U47A ; what self-cleavage kobs at 40 uM GlcN6P value has been reported?
OUT: < 1e-05 s⁻¹

IN: Give the measured self-cleavage kobs at 40 uM GlcN6P of A33U G51A .
OUT: < 1e-05 s⁻¹

IN: Give its self-cleavage kobs at 40 uM GlcN6P value. Item: G43U U49A G60A C68U
OUT: < 1e-05 s⁻¹

IN: // returns reported self-cleavage kobs at 40 uM GlcN6P for input G9C U47G
OUT: < 1e-05 s⁻¹

IN: Quick one: self-cleavage kobs at 40 uM GlcN6P for C10G C70U ?
OUT: < 1e-05 s⁻¹

IN: Find the recorded self-cleavage kobs at 40 uM GlcN6P belonging to A15C G37C G40A G43U and report it.
OUT: < 1e-05 s⁻¹

IN: Which self-cleavage kobs at 40 uM GlcN6P is reported for this variant? A42U G63A
OUT: < 1e-05 s⁻¹

IN: Any idea what its self-cleavage kobs at 40 uM GlcN6P is? The variant is A6G A15C C70A
OUT: < 1e-05 s⁻¹

IN: # get_value(readout='self-cleavage kobs at 40 uM GlcN6P', item= A39U G62U )
OUT: < 1e-05 s⁻¹

IN: What does the data say about its self-cleavage kobs at 40 uM GlcN6P? Entry: A14G C68U
OUT: 0.000235 s⁻¹

IN: Need self-cleavage kobs at 40 uM GlcN6P, item U31G G35U
OUT: < 1e-05 s⁻¹

IN: Using the record for G40A U47A A53U , report its self-cleavage kobs at 40 uM GlcN6P.
OUT: 6.84e-05 s⁻¹

IN: Field request: self-cleavage kobs at 40 uM GlcN6P | item: A36G A42G A52G
OUT: < 1e-05 s⁻¹

IN: Given the variant G9U A12U A33G G40U , what is its reported self-cleavage kobs at 40 uM GlcN6P?
OUT: < 1e-05 s⁻¹

IN: Quick check: self-cleavage kobs at 40 uM GlcN6P of A15C A64G ?
OUT: 0.000125 s⁻¹

IN: What value of self-cleavage kobs at 40 uM GlcN6P has been recorded for this entry: G43A G51U G63C A64G
OUT: < 1e-05 s⁻¹

IN: Item under review: C16A G60U . Reported self-cleavage kobs at 40 uM GlcN6P?
OUT: < 1e-05 s⁻¹

IN: Need self-cleavage kobs at 40 uM GlcN6P, item U45A G59U C70G
OUT: < 1e-05 s⁻¹

IN: Name the recorded self-cleavage kobs at 40 uM GlcN6P for C8U A48C .
OUT: < 1e-05 s⁻¹

IN: Give its self-cleavage kobs at 40 uM GlcN6P value. Item: "G59U"
OUT: < 1e-05 s⁻¹

IN: So what does the record say about self-cleavage kobs at 40 uM GlcN6P for G9U A39U ?
OUT: < 1e-05 s⁻¹

IN: Recorded self-cleavage kobs at 40 uM GlcN6P of A15U U31C C50G , please.
OUT: 5.26e-05 s⁻¹

IN: Would you kindly share the measured self-cleavage kobs at 40 uM GlcN6P for U45A U54A ?
OUT: 0.00179 s⁻¹

IN: Reported self-cleavage kobs at 40 uM GlcN6P, variant A39G U54A : ____
OUT: 0.00173 s⁻¹

IN: Form field: reported self-cleavage kobs at 40 uM GlcN6P of U46C U54G
OUT: 9.45e-05 s⁻¹

IN: What measured self-cleavage kobs at 40 uM GlcN6P goes with A39U C68U ?
OUT: 0.000444 s⁻¹

IN: Any idea what its self-cleavage kobs at 40 uM GlcN6P is? The variant is C34G U45G C70A
OUT: < 1e-05 s⁻¹

IN: Please give the measured self-cleavage kobs at 40 uM GlcN6P for this variant: G37U A64C
OUT: < 1e-05 s⁻¹

IN: self-cleavage kobs at 40 uM GlcN6P for C10U U46A U49A U65C C68G ?
OUT: < 1e-05 s⁻¹

IN: Entry C16A G44C : reported self-cleavage kobs at 40 uM GlcN6P = ?
OUT: < 1e-05 s⁻¹

IN: Looking for the measured self-cleavage kobs at 40 uM GlcN6P of C10U G32A G51C C67U C71U , can you help?
OUT: < 1e-05 s⁻¹

IN: Entry under review: G41A G63A . Reported self-cleavage kobs at 40 uM GlcN6P?
OUT: < 1e-05 s⁻¹

IN: Report self-cleavage kobs at 40 uM GlcN6P for C8G U56G C70U C71A please.
OUT: < 1e-05 s⁻¹

IN: Look up self-cleavage kobs at 40 uM GlcN6P for this variant: A15G C50A A64G
OUT: < 1e-05 s⁻¹

IN: Record request: self-cleavage kobs at 40 uM GlcN6P value, item C10A U49A
OUT: < 1e-05 s⁻¹

IN: Please report the recorded self-cleavage kobs at 40 uM GlcN6P for U30A U54C .
OUT: 0.000151 s⁻¹

IN: What value of measured self-cleavage kobs at 40 uM GlcN6P is listed for A12U U31C U47G ?
OUT: 4.15e-05 s⁻¹

IN: What does the data say about its self-cleavage kobs at 40 uM GlcN6P? Entry: C50G C68A
OUT: 7.16e-05 s⁻¹

IN: For the variant shown here, A14U U47G , give the reported self-cleavage kobs at 40 uM GlcN6P.
OUT: 5.6e-05 s⁻¹

IN: Suppose we examine the variant G9U G32U G41U A53C ; what self-cleavage kobs at 40 uM GlcN6P value has been reported?
OUT: < 1e-05 s⁻¹

IN: Could you share which self-cleavage kobs at 40 uM GlcN6P value was measured for C16A A42U ?
OUT: < 1e-05 s⁻¹

IN: Form field: reported self-cleavage kobs at 40 uM GlcN6P of C34U U69G
OUT: 0.000246 s⁻¹

IN: Fill in: self-cleavage kobs at 40 uM GlcN6P of A6U C8A is ___
OUT: < 1e-05 s⁻¹

IN: I would be grateful if you could share the reported self-cleavage kobs at 40 uM GlcN6P for A12U U65A C67A .
OUT: 6.19e-05 s⁻¹

IN: Using the record for G9A C10G G13U A48U G51U G66C , report its self-cleavage kobs at 40 uM GlcN6P.
OUT: < 1e-05 s⁻¹

IN: # query: self-cleavage kobs at 40 uM GlcN6P of entry A6C U45A
OUT: < 1e-05 s⁻¹
